Value source: patent US10058533B2

// reported anti-factor Xa activity per item
System: factor Xa
ASSAY SUMMARY: Plasma anti-factor Xa activity, rabbit wound-limb deep venous thrombosis forming model
Type: in vivo
TEST CONDITIONS: plasma, 5 mg/kg i.g., 1 h after administration, x ± SD

Would you please look over these solved cases?
- COMPOUND: "CC1C(=O)OC2C(O)C34C5CC(C(C)(C)C)C36C(OC(=O)C6O)OC4(C(=O)O5)C12O (stereo not shown) [Ginkgolide B]"
  anti-factor Xa activity: "0.10 ± 0.10 IU/ml"
- COMPOUND: "COc1ccc(-n2nc(C(N)=O)c3c2C(=O)N(c2ccc(N4CCCCC4=O)cc2)CC3)cc1"
  anti-factor Xa activity: "0.26 ± 0.04 IU/ml"
- COMPOUND: "O=C(NC[C@H]1CN(c2ccc(N3CCOCC3=O)cc2)C(=O)O1)c1ccc(Cl)s1"
  anti-factor Xa activity: "0.31 ± 0.13 IU/ml"

Attention now shifts to the item below.
Task: Need anti-factor Xa activity of CN(C)Cc1nccn1-c1ccc(NC(=O)c2cc(C(F)(F)F)nn2-c2ccc3onc(N)c3c2)c(F)c1 , thanks.
Result: 0.18 ± 0.05 IU/ml
